Provenance of the data: the Human Domainome abundance scans (Beltran et al. 2025)

Exercise: state measured abundance fitness for each of the variants provided.
B1: Tyrosine-protein kinase Lck, residues 63 to 120; numbered along this chain, P06239 (parent)
chain: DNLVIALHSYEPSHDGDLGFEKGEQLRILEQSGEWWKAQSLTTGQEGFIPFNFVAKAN

- Variants of: B1
- test-protocol: abundance fitness (aPCA) (normalised: wild type 0, dead -1); higher = more abundant; growth selection in yeast, the domain comes from the species named
- experimental-context: Homo sapiens

R27W ... -0.44

Give me abundance fitness for each of these variants, listed below.
1. K56H
2. A38N
3. Q45E
4. E46M

Completion:
1: 0.015; 2: -0.445; 3: 0.001; 4: -0.032
